ASSAY NOTES: Hepatic microsomal stability, MLM
Assay type: in vitro ADME
ASSAY CONTEXT: In vitro mouse liver microsomal stability
perc_remaining values by entry
MEASURE NAME: perc_remaining

>>> recorded_measurement("CC(C)[C@@H](Nc1ncnc2[nH]ccc12)c1ccc2c(c1)S(=O)(=O)CCO2")
"33.0%"
>>> recorded_measurement("CC(C)[C@@H](Nc1ncnc2[nH]c(-c3ccc4nnn(C)c4c3)cc12)c1ccc2c(c1)S(=O)(=O)CCC2")
"3.0%"
>>> recorded_measurement("CC(C(=O)O)C(NC(=O)c1ncnc2[nH]ccc12)c1ccc(Br)cc1 (mixture of isomers)")
"94.0%"
>>> recorded_measurement("CC(C)[C@@H](Nc1ncnc2[nH]c(-c3cnn(CC(N)=O)c3)cc12)c1ccc2c(n1)OCCO2 (single isomer, unassigned) [ASAP-0012315]")
"90.0%"
>>> recorded_measurement("CC(C)(C)[C@H](Nc1ncnc2[nH]c(-c3cnn(CC(N)=O)c3)cc12)c1ccc2c(n1)OCCO2 (single isomer, unassigned) [ASAP-0011159]")
"88.0%"
>>> recorded_measurement("CNCc1cc(-c2cc3c(N[C@H](c4ccc5c(c4)S(=O)(=O)CCC5)C(C)C)ncnc3[nH]2)co1 (single isomer, unassigned)")
"51.0%"
>>> recorded_measurement("CNC(=O)c1cc2c(N[C@@H](c3ccc4c(c3)S(=O)(=O)CCC4)C(C)C)ncnc2[nH]1 [ASAP-0008685]")
"47.0%"

----------
ASSAY NOTES: Protein binding
Type: in vitro ADME
ASSAY CONTEXT: In vitro mouse plasma protein binding
MEASURE NAME: perc_bound (%)

>>> recorded_measurement("C[C@H](C(=O)O)[C@@H](NC(=O)c1ncnc2[nH]ccc12)c1ccc(Br)cc1 [ASAP-0014722]")
88.9
>>> recorded_measurement("CC(C)[C@H](Nc1ncnc2[nH]c(-c3cnn(C)c3C#N)cc12)c1ccc2c(n1)OCCO2 [ASAP-0010715]")
97.4
>>> recorded_measurement("CNCc1cc(-c2cc3c(N[C@@H](c4ccc5c(c4)S(=O)(=O)CCC5)C(C)C)ncnc3[nH]2)co1 [ASAP-0011176]")
96.9
>>> recorded_measurement("CC(C)[C@@H](Nc1ncnc2[nH]c(-c3cnn(C)c3C#N)cc12)c1ccc2c(n1)OCCO2 [ASAP-0010716]")
97.3
>>> recorded_measurement("CC(C)[C@H](Nc1ncnc2[nH]ccc12)c1ccc2c(c1)S(=O)(=O)CCC2 [ASAP-0008674]")
87.6
>>> recorded_measurement("COc1ccc([C@H](Cc2nnn[nH]2)NC(=O)c2ncnc3[nH]ccc23)cc1 [ASAP-0015381]")
69.4
>>> recorded_measurement("Cn1ncc(-c2cc3c(N[C@@H](c4ccc5c(n4)OCCO5)C(C)(C)C)ncnc3[nH]2)c1C#N [ASAP-0011221]")
98.9

----------
System: HeLa-ACE2 cells
ASSAY CONTEXT: HeLa-ACE2 cytotoxicity; highest measured response of the dose series
MEASURE NAME: perc_max_measured

>>> recorded_measurement("CCNC(=O)c1cc2c(N[C@H](c3ccc4c(c3)OCCO4)C(C)C)ncnc2[nH]1 [ASAP-0013824]")
"99.37%"
>>> recorded_measurement("CC(C)[C@@H](Nc1ncnc2[nH]c(-c3cnn(C)c3)cc12)c1ccc2c(c1)S(=O)(=O)NCC2 [ASAP-0011192]")
"100.208%"
>>> recorded_measurement("CC(C)[C@@H](Nc1ncnc2[nH]ccc12)c1ccc2c(c1)S(=O)(=O)CCO2 [ASAP-0012318]")
"106.826%"
>>> recorded_measurement("CC(C)[C@@H](Nc1ncnc2[nH]cc(C(=O)NC3CC3)c12)c1ccc2c(c1)S(=O)(=O)CCC2 [ASAP-0011207]")
"109.458%"
>>> recorded_measurement("CCNC(=O)c1cc2c(N[C@@H](c3ccc4c(c3)S(=O)(=O)NCC4)C(C)C)ncnc2[nH]1 [ASAP-0011076]")
"99.412%"
>>> recorded_measurement("CC(C)[C@@H](Nc1ncnc2[nH]c(-c3ccc4nnn(C)c4c3)cc12)c1ccc2c(c1)S(=O)(=O)CCC2 [ASAP-0011201]")
"106.149%"
>>> recorded_measurement("CC(C)[C@@H](Nc1ncnc2[nH]c(-c3cncc(S(C)(=O)=O)c3)cc12)c1ccc2c(c1)S(=O)(=O)CCC2 [ASAP-0012320]")
"98.548%"
